target_or_test_system: human cathepsin S (CatS) (Homo sapiens)
Construct: purchased Sigma Aldrich
Sequence (P25774 115-331): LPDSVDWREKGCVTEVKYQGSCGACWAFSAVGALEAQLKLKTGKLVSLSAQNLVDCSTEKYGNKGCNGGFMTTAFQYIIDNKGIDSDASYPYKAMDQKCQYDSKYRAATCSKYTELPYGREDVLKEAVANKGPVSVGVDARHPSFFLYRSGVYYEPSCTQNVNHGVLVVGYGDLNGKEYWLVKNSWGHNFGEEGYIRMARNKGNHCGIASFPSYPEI
test_method_notes: Fluorometric inhibition assay, cathepsin S
Format: biochemical
test_conditions: Table S1; a) calculated from IC50 with Cheng–Prusoff, irreversible inhibitors from kobs fits; n.a. = not active at 20 µM; * unstable towards DTT; read-out: Ki, CatS
Here, each record is paired with measured pKi data.
// pKi is dimensionless: -log10 of concentration (M)

QUERY: Given the entry COc1cccc2[nH]c(C(=O)N[C@@H](CC(C)C)C(=O)N[C@H](C#N)C[C@@H]3CCNC3=O)cc12 , what pKi was observed with human cathepsin S (CatS) (Homo sapiens)?
RESULT: 6.98

QUERY: Given the entry COc1cccc2[nH]c(C(=O)N[C@@H](CC(C)C)C(=O)N[C@H](/C=C/[N+](=O)[O-])C[C@@H]3CCNC3=O)cc12 , what pKi was observed with human cathepsin S (CatS) (Homo sapiens)?
RESULT: 6.41

QUERY: Given the entry COc1cccc2[nH]c(C(=O)N[C@@H](CC(C)C)C(=O)N[C@H](/C=C(\F)S(=O)(=O)c3ccccc3)C[C@@H]3CCNC3=O)cc12 , what pKi was observed with human cathepsin S (CatS) (Homo sapiens)?
RESULT: 5.87

QUERY: Given the entry COc1cccc2[nH]c(C(=O)N[C@@H](CC(C)C)C(=O)N[C@H](/C=C/S(=O)(=O)c3ccccc3)C[C@@H]3CCNC3=O)cc12 , what pKi was observed with human cathepsin S (CatS) (Homo sapiens)?
RESULT: 6.48
